target: Voltage-gated potassium channel, KQT; KCNQ2(Kv7.2)/KCNQ3(Kv7.3) (Homo sapiens, UniProt O43525+O43526); assay: Agonist activity at Kv7.2/Kv7.3 (unknown origin) expressed in human HEK293 cells by whole cell patch clamp assay; assay type: cell-based
Sequence (O43526 whole entry): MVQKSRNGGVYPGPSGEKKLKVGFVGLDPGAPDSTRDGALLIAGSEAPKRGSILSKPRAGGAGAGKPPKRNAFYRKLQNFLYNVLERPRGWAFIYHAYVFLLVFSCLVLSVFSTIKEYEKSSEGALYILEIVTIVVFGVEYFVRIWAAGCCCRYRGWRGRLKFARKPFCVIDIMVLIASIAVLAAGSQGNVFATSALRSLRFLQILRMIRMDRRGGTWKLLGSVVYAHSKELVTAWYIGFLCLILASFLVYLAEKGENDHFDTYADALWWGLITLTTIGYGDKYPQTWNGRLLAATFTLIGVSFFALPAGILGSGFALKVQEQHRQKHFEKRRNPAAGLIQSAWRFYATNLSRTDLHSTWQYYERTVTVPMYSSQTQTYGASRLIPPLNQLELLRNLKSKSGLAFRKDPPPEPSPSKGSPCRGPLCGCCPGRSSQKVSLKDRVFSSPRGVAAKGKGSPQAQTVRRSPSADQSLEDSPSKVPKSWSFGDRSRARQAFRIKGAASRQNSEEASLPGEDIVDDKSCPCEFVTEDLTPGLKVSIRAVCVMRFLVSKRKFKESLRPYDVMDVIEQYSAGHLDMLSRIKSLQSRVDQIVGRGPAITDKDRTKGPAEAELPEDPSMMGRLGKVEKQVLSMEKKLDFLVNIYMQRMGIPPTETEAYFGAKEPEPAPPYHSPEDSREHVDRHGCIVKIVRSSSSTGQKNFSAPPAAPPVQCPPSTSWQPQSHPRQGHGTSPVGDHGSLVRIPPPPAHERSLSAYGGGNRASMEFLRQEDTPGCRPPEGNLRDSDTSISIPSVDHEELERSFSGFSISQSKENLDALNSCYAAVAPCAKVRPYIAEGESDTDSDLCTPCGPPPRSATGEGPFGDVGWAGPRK
Sequence (O43525 whole entry): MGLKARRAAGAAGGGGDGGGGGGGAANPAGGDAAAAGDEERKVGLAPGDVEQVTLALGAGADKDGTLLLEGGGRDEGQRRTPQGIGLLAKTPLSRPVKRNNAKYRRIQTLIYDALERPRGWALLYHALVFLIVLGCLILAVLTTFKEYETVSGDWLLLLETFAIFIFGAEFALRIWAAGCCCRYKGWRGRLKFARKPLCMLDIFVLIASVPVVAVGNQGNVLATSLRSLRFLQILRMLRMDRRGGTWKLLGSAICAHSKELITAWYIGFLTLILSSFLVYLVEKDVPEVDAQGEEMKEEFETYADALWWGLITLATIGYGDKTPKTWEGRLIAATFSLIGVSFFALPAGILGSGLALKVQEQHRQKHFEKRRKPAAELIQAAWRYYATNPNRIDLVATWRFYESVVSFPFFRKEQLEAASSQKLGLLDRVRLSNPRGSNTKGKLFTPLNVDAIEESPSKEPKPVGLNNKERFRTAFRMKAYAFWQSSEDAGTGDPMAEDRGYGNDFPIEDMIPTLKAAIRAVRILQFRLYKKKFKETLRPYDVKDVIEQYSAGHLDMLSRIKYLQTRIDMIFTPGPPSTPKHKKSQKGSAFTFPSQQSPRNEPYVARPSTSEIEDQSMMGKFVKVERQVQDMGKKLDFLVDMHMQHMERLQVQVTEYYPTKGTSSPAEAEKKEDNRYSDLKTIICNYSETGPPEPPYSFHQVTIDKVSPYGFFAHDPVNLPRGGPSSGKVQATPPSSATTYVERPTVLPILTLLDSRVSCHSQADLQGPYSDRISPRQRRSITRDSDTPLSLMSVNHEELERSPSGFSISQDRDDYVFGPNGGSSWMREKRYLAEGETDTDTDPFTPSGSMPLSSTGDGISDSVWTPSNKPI
assayReadout: pEC50
A value of pEC50 is the negative decimal logarithm of a concentration given in moles per litre.

Report pEC50 for Cc1cc(N2CCc3sc(Br)cc3C2)cc(C)c1NC(=O)CC(C)(C)C please.
8.01

###

target: Histamine H3 receptor (Homo sapiens, UniProt Q9Y5N1); experiment: Antagonist activity at human H3 receptor
Sequence (Q9Y5N1 whole entry): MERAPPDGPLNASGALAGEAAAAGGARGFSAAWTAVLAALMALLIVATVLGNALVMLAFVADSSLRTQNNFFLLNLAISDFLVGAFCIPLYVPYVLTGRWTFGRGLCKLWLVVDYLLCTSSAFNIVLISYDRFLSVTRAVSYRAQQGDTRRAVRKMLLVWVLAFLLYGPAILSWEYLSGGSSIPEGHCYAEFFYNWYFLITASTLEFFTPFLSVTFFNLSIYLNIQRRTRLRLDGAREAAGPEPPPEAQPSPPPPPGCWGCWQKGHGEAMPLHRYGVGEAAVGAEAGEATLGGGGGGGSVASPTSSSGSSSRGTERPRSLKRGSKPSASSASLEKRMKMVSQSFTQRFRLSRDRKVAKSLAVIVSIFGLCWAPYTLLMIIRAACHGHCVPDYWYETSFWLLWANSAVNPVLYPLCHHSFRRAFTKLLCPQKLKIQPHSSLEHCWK
assayReadout: pKi
Hey, just a heads up that pKi is the negative log base 10 of the concentration in molar.

For CC(C)(C)c1ccc(OCCCCN2CCN(c3ccncc3)CC2)cc1 , what is its reported pKi?
7.80
